Target: T1, LIN28A H162A (mouse, UniProt Q8K3Y3 1-209, H162A)
T1 sequence: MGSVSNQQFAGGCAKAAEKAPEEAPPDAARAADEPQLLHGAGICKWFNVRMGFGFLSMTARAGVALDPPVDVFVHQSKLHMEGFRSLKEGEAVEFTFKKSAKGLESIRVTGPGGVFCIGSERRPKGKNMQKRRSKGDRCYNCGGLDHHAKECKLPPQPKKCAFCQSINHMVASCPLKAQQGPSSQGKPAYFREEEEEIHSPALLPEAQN
Experiment: SPR

[
  {
    "binder": "GGGGUAGUGAUUUUACCCUGUUUAGGAGAU (structured_RNA) [preE-let-7f-1 biotin]",
    "Kd [nM]": 382
  }
]
